# systemTested: Human UII (U-II receptor) in 6D9 human rhabdomyosarcoma cells (Homo sapiens, UniProt Q9UKP6)
# Construct: 6D9: isolated by dilution subcloning of RMS13 cells, ATCC® Number: CRL-2061; host or cells: 6D9 human rhabdomyosarcoma cells (subclone of RMS13)
# Sequence (Q9UKP6 whole entry): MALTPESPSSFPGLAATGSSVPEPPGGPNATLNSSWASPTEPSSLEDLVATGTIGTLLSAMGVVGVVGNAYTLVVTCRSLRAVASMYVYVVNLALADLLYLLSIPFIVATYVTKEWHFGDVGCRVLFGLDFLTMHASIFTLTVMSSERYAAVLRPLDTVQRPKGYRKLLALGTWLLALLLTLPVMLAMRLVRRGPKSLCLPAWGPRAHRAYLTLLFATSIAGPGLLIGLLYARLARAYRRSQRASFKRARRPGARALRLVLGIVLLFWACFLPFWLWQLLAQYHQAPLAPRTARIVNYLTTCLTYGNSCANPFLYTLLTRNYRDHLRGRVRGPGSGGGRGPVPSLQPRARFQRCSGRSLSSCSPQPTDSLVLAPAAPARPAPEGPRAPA
# experimentalDetails: Human UII Calcium Mobilization Assay
# Format: cell-based
# settings: 6D9 human rhabdomyosarcoma cells, FLIPR TETRA, average; read-out: Human UII Ca+ Mobilization Average IC50
property: IC50 (nM)

1. CCN1CCN(c2cccc3c2CN([C@H](CCCOc2ccccc2)c2ccc(OC)c(OC)c2)C3=O)CC1
2. CCN1CCN(c2cccc3c2CN([C@H](CCCNc2nc(C)cc(C)n2)c2ccc(OC)c(OC)c2)C3=O)CC1
Among 1 and 2 , which shows a numerically higher IC50 result? Could you answer with the label of the item you picked? 2
(2: 844 nM, 1: 482 nM)

---

# systemTested: UT receptors in HSMM (Human Skeletal Muscle Myoblasts) (Homo sapiens)
# experimentalDetails: Human Radioligand Binding Assay ((^125I)-U-II binding to intact HSMM)
property: Ki (nM)

Here are 3 molecules together with their reported answers.
I'd like to know its Ki. The molecule in question is CCN1CCN(c2cccc3c2CN([C@H](CCCN(C)S(=O)(=O)N(C)C)c2ccc(OC)c(OC)c2)C3=O)CC1 55

Suppose we examine the molecule CCN1CCN(c2cccc3c2CN([C@H](CCCNc2ccccc2)c2ccc(OC)c(OC)c2)C3=O)CC1 ; what Ki value has been reported? 75

Need Ki, item CCN1CCN(c2cccc3c2CN([C@H](CCCc2ccccc2)c2ccc(OC)c(OC)c2)C3=O)CC1 37

P. CCN1CCN(c2cccc3c2CN([C@H](CCCN(Cc2ccccc2)C(C)C)c2ccc(OC)c(OC)c2)C3=O)CC1
Q. CCN1CCN(c2cccc3c2CN(C(CC2CCN(S(=O)(=O)c4cccs4)CC2)c2ccc(OC)c(OC)c2)C3=O)CC1 (stereo not drawn)
Hi, I'm comparing two records. Which one has the lower Ki, P or Q ? I would appreciate it if you answered with the label of your choice. Q

P. CCN1CCN(c2cccc3c2CN([C@H](CCCNc2nccc(C)n2)c2ccc(OC)c(OC)c2)C3=O)CC1
Q. COc1ccc([C@@H](CCCOc2ccccc2)N2Cc3c(cccc3N3CCNCC3)C2=O)cc1OC
R. CCN1CCN(c2cccc3c2CN([C@H](CCCNc2cccc[n+]2[O-])c2ccc(OC)c(OC)c2)C3=O)CC1
Ascending sort, Ki. Give the order by naming the labels one after another as requested. P, Q, R
(P: 13 nM, Q: 50 nM, R: 125 nM)

I. CCN1CCN(c2cccc3c2CN([C@H](CCCNC(=O)C(F)(F)F)c2ccc(OC)c(OC)c2)C3=O)CC1
II. CCN1CCN(c2cccc3c2CN([C@H](CCCNC(=O)c2nccn2C)c2ccc(OC)c(OC)c2)C3=O)CC1
III. CCN1CCN(c2cccc3c2CN([C@H](CCCSc2nc(C)cc(C)n2)c2ccc(OC)c(OC)c2)C3=O)CC1
Hi! Can you put these in order of Ki, lowest number first? A complete answer lists every label in the requested sequence. III, I, II
(III: 19 nM, I: 43 nM, II: 125 nM)

a. CCN1CCN(c2cccc3c2CN([C@H](CCCNS(=O)(=O)c2cn(C)c(C)n2)c2ccc(OC)c(OC)c2)C3=O)CC1
b. CCc1ccnc(NCCC[C@H](c2ccc(OC)c(OC)c2)N2Cc3c(cccc3N3CCN(CC)CC3)C2=O)n1
Just tell me: smaller Ki value, a or b ? Field: selected label. Fill in the label of the entry you choose. a
(a: 25 nM, b: 48 nM)

---

# systemTested: rat GPR14 (U-II receptor) (Rattus norvegicus)
# experimentalDetails: Rat UII Calcium Mobilization FLIPR Assay
# settings: CHO cells transfected with rat GPR14; antagonist activity after 5 min incubation vs agonist (Ac)-CFWK(2-NaI)C-NH2 at 1 nM
property: IC50 (nM)

For orientation, consider the following solved cases.
Name the recorded IC50 for CCN1CCN(c2cccc3c2CN(C(c2cccc(NS(=O)(=O)c4cccs4)c2)c2ccc(OC)c(OC)c2)C3=O)CC1 (stereo not drawn) . 31

Consider the compound shown here: CCN1CCN(c2cccc3c2CN([C@H](CCCNCc2cccs2)c2ccc(OC)c(OC)c2)C3=O)CC1 What is its recorded IC50? 6

I. COc1ccc([C@@H](CCCOc2ccccc2)N2Cc3c(cccc3N3CCN(Cc4ccccc4)CC3)C2=O)cc1OC
II. CCN1CCN(c2cccc3c2CN([C@H](CCCNS(=O)(=O)c2cn(C)c(C)n2)c2ccc(OC)c(OC)c2)C3=O)CC1
III. CCN1CCN(c2cccc3c2CN(C(c2ccc(OC)c(OC)c2)C2CCN(Cc4ccccc4)CC2)C3=O)CC1 (stereo not drawn)
IV. CCN1CCN(c2cccc3c2CN([C@H](CCCOCc2ccccc2F)c2ccc(OC)c(OC)c2)C3=O)CC1
// sort entries: IC50, high to low Please list the labels according to the requested order. IV, III, I, II

---

# systemTested: Human UII (U-II receptor) in 6D9 human rhabdomyosarcoma cells (Homo sapiens)
# Construct: 6D9: isolated by dilution subcloning of RMS13 cells, ATCC® Number: CRL-2061; host or cells: 6D9 human rhabdomyosarcoma cells (subclone of RMS13)
# experimentalDetails: Human UII Calcium Mobilization Assay
# Format: cell-based
# settings: 6D9 human rhabdomyosarcoma cells, FLIPR TETRA, average; read-out: Human UII Ca+ Mobilization Average IC50
property: IC50 (nM)

What value of IC50 has been reported for the following molecule? CCN1CCN(c2cccc3c2CN([C@H](CCCN(C)Cc2ccc(F)cc2)c2ccc(OC)c(OC)c2)C3=O)CC1 238

Value lookup for IC50; key = CCN(CC)CCC[C@H](c1ccc(OC)c(OC)c1)N1Cc2c(cccc2N2CCN(CC)CC2)C1=O 2040

Which IC50 is listed for CCN1CCN(c2cccc3c2CN([C@H](CCCN(C)Cc2ccco2)c2ccc(OC)c(OC)c2)C3=O)CC1 ? 74

Can you share its IC50? I mean this molecule: CCN1CCN(c2cccc3c2CN([C@H](CCCNc2nccc(Cl)n2)c2ccc(OC)c(OC)c2)C3=O)CC1 496

Give its IC50 value. Item: CCN1CCN(c2cccc3c2CN([C@H](CCCNC(=O)c2ccncc2)c2ccc(OC)c(OC)c2)C3=O)CC1 628

Please look up its IC50: CCN1CCN(c2cccc3c2CN([C@H](CCCNC(=O)c2nccn2C)c2ccc(OC)c(OC)c2)C3=O)CC1 699

Which value of IC50 has been reported for COc1ccc([C@@H](CCCNc2nccc(C(F)(F)F)n2)N2Cc3c(cccc3N3CCNCC3)C2=O)cc1OC in the records? 536

Would you mind telling me what IC50 value was observed for CCN1CCN(c2cccc3c2CN([C@H](CCCNC(=O)c2ccnnc2)c2ccc(OC)c(OC)c2)C3=O)CC1 ? 858

P. CCN1CCN(c2cccc3c2CN([C@H](CCCn2ccnc2C)c2ccc(OC)c(OC)c2)C3=O)CC1
Q. CCN1CCN(c2cccc3c2CN([C@H](CCCNC(=O)Nc2ccccc2)c2ccc(OC)c(OC)c2)C3=O)CC1
R. CCN1CCN(c2cccc3c2CN([C@H](CCCNS(=O)(=O)c2cn(C)cn2)c2ccc(OC)c(OC)c2)C3=O)CC1
Order the records so the highest IC50 appears first and the lowest last. Enter labels, ranked according to the request. P, Q, R

a. CCN1CCN(c2cccc3c2CN([C@H](CCCNc2nccc(OC)n2)c2ccc(OC)c(OC)c2)C3=O)CC1
b. CCN1CCN(c2cccc3c2CN([C@H](CCCNc2ccccn2)c2ccc(OC)c(OC)c2)C3=O)CC1
Of a and b , which carries the smaller reported IC50 figure? Refer to your chosen item by its label in the answer. a

---

# systemTested: rat GPR14 (U-II receptor) (Rattus norvegicus, UniProt P49684)
# Sequence (P49684 whole entry): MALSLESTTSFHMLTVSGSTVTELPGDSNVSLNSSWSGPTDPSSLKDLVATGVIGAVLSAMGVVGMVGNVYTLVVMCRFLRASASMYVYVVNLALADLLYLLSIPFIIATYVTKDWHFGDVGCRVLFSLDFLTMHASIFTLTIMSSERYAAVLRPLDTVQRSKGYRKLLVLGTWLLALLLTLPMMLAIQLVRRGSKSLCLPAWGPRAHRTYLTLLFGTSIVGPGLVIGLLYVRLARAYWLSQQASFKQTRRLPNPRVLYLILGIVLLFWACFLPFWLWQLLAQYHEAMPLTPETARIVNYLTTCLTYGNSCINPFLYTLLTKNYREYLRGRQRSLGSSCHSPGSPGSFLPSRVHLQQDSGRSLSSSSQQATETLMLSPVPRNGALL
# experimentalDetails: Rat UII Calcium Mobilization FLIPR Assay
# settings: CHO cells transfected with rat GPR14; antagonist activity after 5 min incubation vs agonist (Ac)-CFWK(2-NaI)C-NH2 at 1 nM
pIC50: −log10 of the molar value.
property: pIC50

Recorded results for 2 molecules are shown here.
Checklist item: pIC50 tested on rat GPR14 (U-II receptor) (Rattus norvegicus, UniProt P49684), entry CCN1CCN(c2cccc3c2CN([C@H](CCCN(Cc2ccc(F)cc2)C2CC2)c2ccc(OC)c(OC)c2)C3=O)CC1 , value? 8.22

Provide the documented pIC50 with rat GPR14 (U-II receptor) (Rattus norvegicus, UniProt P49684) as the system for CCN1CCN(c2cccc3c2CN([C@H](CCCN2Cc4ccccc4C2)c2ccc(OC)c(OC)c2)C3=O)CC1 8.10

P. CCN1CCN(c2cccc3c2CN([C@H](CCCOc2ccccc2)c2ccc(OC)c(OC)c2)C3=O)CC1
Q. CCN1CCN(c2cccc3c2CN([C@H](CCCNC(=O)c2ccco2)c2ccc(OC)c(OC)c2)C3=O)CC1
Identify the entry with the larger pIC50. Options: P and Q Kindly give the label for the entry you pick. P
